MEASUREMENT_TARGET: GC receptor
TEST_SUMMARY: cell-based or functional assay
Numbered stars: 1 amine (or outer) side, 2 acyl side, 3 side chain; on linkers, the order of the positions; unused ones are H or OH. Square brackets hold non-standard residues; d marks the D form. Side chains are listed from the residue outwards. Ends that are not written are not given here. * marks the point of attachment. C20 diacid = O=C(O)CCCCCCCCCCCCCCCCCCC(=O)*; C18 diacid = O=C(O)CCCCCCCCCCCCCCCCC(=O)*; γGlu = O=C(O)[C@H](CCC(=O)[*:2])N[*:1]; AEEA = NCCOCCOCC(=O)O; Aib = CC(C)(N)C(=O)O
ENDPOINT_NAME: EC50 of GC receptor mediated cAMP production
Answer with the figure and its unit, nothing else.

May I ask what EC50 of GC receptor mediated cAMP production has been recorded for H[Aib]QGTFTSDK([AEEA-AEEA-γGlu-C20 diacid])SKYLDERAAKEFIAWLEAGGPSSG-NH2 (not fully specified; printed as HAibQGTFTSDK***SKYLDERAAKEFIAWLEAGGPSSG-Amid) [Compound 77] ?
76 pM

May I ask what EC50 of GC receptor mediated cAMP production has been recorded for H[Aib]QGTFTSDK([AEEA-AEEA-γGlu-C18 diacid])SKYLEERAAKEFIAWLEAGGPSSG-NH2 (not fully specified; printed as HAibQGTFTSDK**SKYLEERAAKEFIAWLEAGGPSSG-Amid) [Compound 27] ?
14 pM

May I ask what EC50 of GC receptor mediated cAMP production has been recorded for H[Aib]QGTFTSDYSKYLDEKRAK([AEEA-AEEA-γGlu-C18 diacid])EFIAWLEAGGPSSG-NH2 (not fully specified; printed as HAibQGTFTSDYSKYLDEKRAK**EFIAWLEAGGPSSG-Amid) [Compound 50] ?
48 pM

May I ask what EC50 of GC receptor mediated cAMP production has been recorded for H[Aib]QGTFTSDK([AEEA-AEEA-γGlu-C18 diacid])SKYLDERAAKEFIAWLEGGPSSG-NH2 (not fully specified; printed as HAibQGTFTSDK**SKYLDERAAKEFIAWLEGGPSSG-Amid) [Compound 75] ?
87 pM

May I ask what EC50 of GC receptor mediated cAMP production has been recorded for H[Aib]QGTFTSDYSKYLEEKRAK([AEEA-AEEA-γGlu-C18 diacid])EFVAWLEGGPSSG-NH2 (not fully specified; printed as HAibQGTFTSDYSKYLEEKRAK**EFVAWLEGGPSSG-Amid) [Compound 74] ?
725 pM

May I ask what EC50 of GC receptor mediated cAMP production has been recorded for H[Aib]QGTFTSDK([AEEA-AEEA-γGlu-C18 diacid])SKYLEERAAKEFVAWLEAGGPSSG-NH2 (not fully specified; printed as HAibQGTFTSDK**SKYLEERAAKEFVAWLEAGGPSSG-Amid) [Compound 22] ?
18 pM

May I ask what EC50 of GC receptor mediated cAMP production has been recorded for H[Aib]QGTFTSDYSKYLEEKRAK([AEEA-AEEA-γGlu-C18 diacid])EFVAWLEAGGPSSG-NH2 (not fully specified; printed as HAibQGTFTSDYSKYLEEKRAK**EFVAWLEAGGPSSG-Amid) [Compound 53] ?
316 pM
